Test system: Aspergillus niger
method: Antifungal activity against Aspergillus niger ATCC 6275 incubated for 72 hrs followed by serial sub-cultivation for 72 hrs by serial dilution technique
Type: functional
measurement_setup: ATCC 6275, 72 h
The compounds listed here are annotated with their MFC.
readout_kind: MFC (µM)

- compound: "c1ccc(-c2ccc(C(c3ccccc3)n3ccnc3)cc2)cc1 (centres undefined)"
  target_desc: "Aspergillus niger"
  readout_kind: "MFC"
  experimental_value: 640
- compound: "CCNc1nc(C)c(C(=O)/C=C/c2cccc([N+](=O)[O-])c2)s1"
  target_desc: "Aspergillus niger"
  readout_kind: "MFC"
  experimental_value: 78.8
- compound: "CCNc1nc(C)c(C(=O)/C=C/c2ccccc2)s1"
  target_desc: "Aspergillus niger"
  readout_kind: "MFC"
  experimental_value: 73.5
- compound: "CNc1nc(C)c(C(=O)/C=C/c2cccc(F)c2)s1"
  target_desc: "Aspergillus niger"
  readout_kind: "MFC"
  experimental_value: 72.5
- compound: "CCNc1nc(C)c(C(=O)/C=C/c2cccc(Br)c2)s1"
  target_desc: "Aspergillus niger"
  readout_kind: "MFC"
  experimental_value: 57.1
- compound: "CCNc1nc(C)c(C(=O)/C=C/c2ccc(F)cc2)s1"
  target_desc: "Aspergillus niger"
  readout_kind: "MFC"
  experimental_value: 51.7
- compound: "CCCNc1nc(C)c(C(=O)/C=C/c2ccccc2)s1"
  target_desc: "Aspergillus niger"
  readout_kind: "MFC"
  experimental_value: 70
- compound: "CNc1nc(C)c(C(=O)/C=C/c2cccc(C)c2)s1"
  target_desc: "Aspergillus niger"
  readout_kind: "MFC"
  experimental_value: 73.5
- compound: "CCNc1nc(C)c(C(=O)/C=C/c2ccc(OC)cc2)s1"
  target_desc: "Aspergillus niger"
  readout_kind: "MFC"
  experimental_value: 66.2
- compound: "CNc1nc(C)c(C(=O)/C=C/c2ccc(F)cc2)s1"
  target_desc: "Aspergillus niger"
  readout_kind: "MFC"
  experimental_value: 72.5
- compound: "CCNc1nc(C)c(C(=O)/C=C/c2cccc(F)c2)s1"
  target_desc: "Aspergillus niger"
  readout_kind: "MFC"
  experimental_value: 68.9
- compound: "CNc1nc(C)c(C(=O)/C=C/c2cccc(Br)c2)s1"
  target_desc: "Aspergillus niger"
  readout_kind: "MFC"
  experimental_value: 59.3
- compound: "CCNc1nc(C)c(C(=O)/C=C/c2ccccc2Cl)s1"
  target_desc: "Aspergillus niger"
  readout_kind: "MFC"
  experimental_value: 65.3
- compound: "CC(=O)N1CCN(c2ccc(OCC3COC(Cn4ccnc4)(c4ccc(Cl)cc4Cl)O3)cc2)CC1 (centres undefined)"
  target_desc: "Aspergillus niger"
  readout_kind: "MFC"
  experimental_value: 950
- compound: "CCNc1nc(C)c(C(=O)/C=C/c2ccc(Cl)cc2)s1"
  target_desc: "Aspergillus niger"
  readout_kind: "MFC"
  experimental_value: 81.7
- compound: "CNc1nc(C)c(C(=O)/C=C/c2cccc(Cl)c2Cl)s1"
  target_desc: "Aspergillus niger"
  readout_kind: "MFC"
  experimental_value: 61.2
- compound: "CCNc1nc(C)c(C(=O)/C=C/c2cccc(Cl)c2)s1"
  target_desc: "Aspergillus niger"
  readout_kind: "MFC"
  experimental_value: 81.7
- compound: "CCNc1nc(C)c(C(=O)/C=C/c2ccc([N+](=O)[O-])cc2)s1"
  target_desc: "Aspergillus niger"
  readout_kind: "MFC"
  experimental_value: 63.1
- compound: "CCNc1nc(C)c(C(=O)/C=C/c2ccccc2OC)s1"
  target_desc: "Aspergillus niger"
  readout_kind: "MFC"
  experimental_value: 66.2

---

Tested on: Escherichia coli
method: Antibacterial activity against Escherichia coli ATCC 35210 after 24 hrs by microdilution method
Type: functional
measurement_setup: ATCC 35210, 24 h

- structure_as_smiles: "CCNc1nc(C)c(C(=O)/C=C/c2cccc(Cl)c2)s1"
  MIC (µM): 49.1
- structure_as_smiles: "CNc1nc(C)c(C(=O)/C=C/c2cccc(F)c2)s1"
  MIC (µM): 54.3
- structure_as_smiles: "CCNc1nc(C)c(C(=O)/C=C/c2cccc([N+](=O)[O-])c2)s1"
  MIC (µM): 63.1
- structure_as_smiles: "CCNc1nc(C)c(C(=O)/C=C/c2cccc(F)c2)s1"
  MIC (µM): 68.9
- structure_as_smiles: "CCNc1nc(C)c(C(=O)/C=C/c2ccc(Cl)cc2)s1"
  MIC (µM): 65.3

---

System: Salmonella typhimurium
method: Antibacterial activity against Salmonella Typhimurium ATCC 13311 incubated for 24 hrs followed by serial sub-cultivation for 24 hrs by microdilution
Assay type: functional, Salmonella enterica subsp. enterica serovar Typhimurium
measurement_setup: Salmonella enterica, ATCC 13311, 24 h
The compounds listed here are annotated with their MBC.

- compound: "CCNc1nc(C)c(C(=O)/C=C/c2ccccc2Cl)s1"
  units_label: "µM"
  MBC: 61.1
- compound: "CCNc1nc(C)c(C(=O)/C=C/c2ccc(OC)cc2)s1"
  units_label: "µM"
  MBC: 49.7
- compound: "CCNc1nc(C)c(C(=O)/C=C/c2cccc(F)c2)s1"
  units_label: "µM"
  MBC: 51.7
- compound: "CNc1nc(C)c(C(=O)/C=C/c2cccc(Cl)c2Cl)s1"
  units_label: "µM"
  MBC: 76.5
- compound: "CNc1nc(C)c(C(=O)/C=C/c2ccc(F)cc2)s1"
  units_label: "µM"
  MBC: 72.5
- compound: "CN[C@@H]1[C@H](O[C@H]2[C@H](O[C@H]3[C@H](O)[C@@H](O)[C@H](N=C(N)N)[C@@H](O)[C@@H]3N=C(N)N)O[C@@H](C)[C@]2(O)C=O)O[C@@H](CO)[C@H](O)[C@H]1O [STREPTOMYCIN]"
  units_label: "µM"
  MBC: 344
- compound: "CCNc1nc(C)c(C(=O)/C=C/c2ccc(F)cc2)s1"
  units_label: "µM"
  MBC: 51.7
- compound: "CC1(C)S[C@@H]2[C@H](NC(=O)[C@H](N)c3ccccc3)C(=O)N2[C@H]1C(=O)O [AMPICILLIN]"
  units_label: "µM"
  MBC: 492
- compound: "CCNc1nc(C)c(C(=O)/C=C/c2ccccc2)s1"
  units_label: "µM"
  MBC: 91.9

---

Test system: Enterococcus faecalis
method: Antibacterial activity against Enterococcus faecalis isolated from human after 24 hrs by microdilution method
Assay type: functional

- molecule: "CCNc1nc(C)c(C(=O)/C=C/c2ccc([N+](=O)[O-])cc2)s1"
  target_desc: "Enterococcus faecalis"
  units_label: "µM"
  MIC: 47.3
- molecule: "CCNc1nc(C)c(C(=O)/C=C/c2ccc(F)cc2)s1"
  target_desc: "Enterococcus faecalis"
  units_label: "µM"
  MIC: 51.7
- molecule: "CCCNc1nc(C)c(C(=O)/C=C/c2ccccc2)s1"
  target_desc: "Enterococcus faecalis"
  units_label: "µM"
  MIC: 90
- molecule: "CCNc1nc(C)c(C(=O)/C=C/c2ccc(Cl)cc2)s1"
  target_desc: "Enterococcus faecalis"
  units_label: "µM"
  MIC: 81.7
- molecule: "CCNc1nc(C)c(C(=O)/C=C/c2cccc(Br)c2)s1"
  target_desc: "Enterococcus faecalis"
  units_label: "µM"
  MIC: 57.1
- molecule: "CCNc1nc(C)c(C(=O)/C=C/c2ccc(OC)cc2)s1"
  target_desc: "Enterococcus faecalis"
  units_label: "µM"
  MIC: 66.2
- molecule: "CNc1nc(C)c(C(=O)/C=C/c2cccc(C)c2)s1"
  target_desc: "Enterococcus faecalis"
  units_label: "µM"
  MIC: 55.1
- molecule: "CNc1nc(C)c(C(=O)/C=C/c2cccc(Br)c2)s1"
  target_desc: "Enterococcus faecalis"
  units_label: "µM"
  MIC: 74.2
- molecule: "CC1(C)S[C@@H]2[C@H](NC(=O)[C@H](N)c3ccccc3)C(=O)N2[C@H]1C(=O)O [AMPICILLIN]"
  target_desc: "Enterococcus faecalis"
  units_label: "µM"
  MIC: 248
- molecule: "CCNc1nc(C)c(C(=O)/C=C/c2cccc(F)c2)s1"
  target_desc: "Enterococcus faecalis"
  units_label: "µM"
  MIC: 51.7
- molecule: "CCNc1nc(C)c(C(=O)/C=C/c2ccccc2OC)s1"
  target_desc: "Enterococcus faecalis"
  units_label: "µM"
  MIC: 82.8
- molecule: "CCNc1nc(C)c(C(=O)/C=C/c2ccccc2Cl)s1"
  target_desc: "Enterococcus faecalis"
  units_label: "µM"
  MIC: 48.9
- molecule: "CCNc1nc(C)c(C(=O)/C=C/c2ccccc2)s1"
  target_desc: "Enterococcus faecalis"
  units_label: "µM"
  MIC: 55.1
- molecule: "CCNc1nc(C)c(C(=O)/C=C/c2cccc(Cl)c2)s1"
  target_desc: "Enterococcus faecalis"
  units_label: "µM"
  MIC: 49.1
